# EXPERIMENT_DESCRIPTION: Gli-Sufu pathway antagonists, primary screen, luciferase luminescence, Sufu-KO-LIGHT cells, uHTS (AID 588413);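 note: 0% = DMSO-treated cells and 100% = wells with medium but no cells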
# CONDITIONS: Sufu-KO-LIGHT fibroblasts, Gli luciferase reporter luminescence; at 5 µM
Hit rate of the full screen: of about 340,000 compounds, about 2,500 (0.74%) were called active.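 Rule for the calls: active = inhibition above about 55% (limit read from the data); inactive = the rest.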 Shown is part of a subset that was picked to be rich in actives.
Outcome codes: active, inactive

# MOLECULE, ASSIGNED_LABEL
measured = [
    ("CN1CCN(C(=O)/C(=C\\c2ccc3c(c2)OCO3)NC(=O)c2cccs2)CC1", "inactive"),
    ("COc1ccc(N(CC(=O)Nc2ccc(F)c(F)c2)S(=O)(=O)c2c(C)[nH]c(=O)[nH]c2=O)cc1", "inactive"),
    ("O=C(O)C1CC(=O)N(Cc2cccnc2)C1 (stereo not given)", "inactive"),
    ("O=C1/C(=C\\c2cccnc2)CN(Cc2ccccc2)C/C1=C\\c1cccnc1", "active"),
    ("CCOC(=O)C1CN(S(=O)(=O)c2ccc(OC)cc2)c2cc(Cl)ccc2O1 (stereo not given)", "inactive"),
    ("CC(=O)c1cc(-c2ccccc2)n(CCC(=O)NC2CCCCCC2)c1C", "inactive"),
    ("CC1CCCN(C(=O)CN2C(=O)c3ccccc3S2(=O)=O)C1 (stereo not given)", "inactive"),
    ("CCOc1cc(C2/C(=C(/O)c3ccc(S(=O)(=O)N4CCCCC4)cc3)C(=O)C(=O)N2CCOC)ccc1O (stereo not given)", "inactive"),
    ("O=C(CSCc1ccccc1)N1CCc2ccccc21", "inactive"),
    ("CCOC(=O)CN(C(=O)COc1nc(-c2ccccc2)cc(C)c1C#N)c1ccc(F)cc1", "inactive"),
]

* * *

# EXPERIMENT_DESCRIPTION: Gli-Sufu pathway antagonists, primary screen, luciferase luminescence, Sufu-KO-LIGHT cells, uHTS (AID 588413);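 note: 0% = DMSO-treated cells and 100% = wells with medium but no cells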
# CONDITIONS: Sufu-KO-LIGHT fibroblasts, Gli luciferase reporter luminescence; at 5 µM
Among all 340,000 compounds or so, about 2,500 (0.74%) were called active.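 How the source made its calls: active means inhibition above about 55% (limit read from the data); inactive means the rest.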 The full list was thinned out, with actives kept by preference.
Labels: true (1) = active, false (0) = inactive

# MOLECULE, ASSIGNED_LABEL
rows = [
    ("COc1cccc(NC(=O)COC(=O)CCOc2ccccc2OC)c1", "false (0)"),
    ("O=C1NNC(c2ccccc2)=N/C1=C\\c1ccc(Cl)cc1", "false (0)"),
    ("CC(C)c1ccc2c(c1)c(SC(C)(C)C)c(CC(C)(C)C(=O)O)n2Cc1ccc(Cl)cc1", "false (0)"),
    ("COCCCNC(=O)Cn1cc(C(=O)C2CC2)c2ccccc21", "false (0)"),
    ("Cc1nnc(N/N=C/c2ccccn2)[nH]c1=O", "true (1)"),
    ("CCN(CC)S(=O)(=O)c1ccc(N(C)Cc2cccc(OC)c2OC)nc1", "false (0)"),
    ("CC(C)(C)c1ccc(C(=O)NCc2ccco2)cc1", "false (0)"),
    ("CC(NC(=O)C1CCC(CNc2c(N3CCOCC3)c(=O)c2=O)CC1)c1ccccc1 (stereo not drawn)", "false (0)"),
    ("C=CCc1c(C)nc2cc(-c3ccccc3)[nH]n2c1=O", "false (0)"),
    ("COc1cc(C(F)(F)F)nc2c(Br)c(C(C)(C)C)nn12", "false (0)"),
    ("CC1=Nn2c(nnc2-c2ccccc2)SC1", "false (0)"),
    ("CCCCCCCCCCOC(=O)Cn1c(COc2ccc(C)cc2)[n+](C)c2ccccc21", "true (1)"),
    ("Cc1ccccc1NC(=O)Cn1cc(C(=O)C2CC2)c2ccccc21", "false (0)"),
    ("O=C(CNS(=O)(=O)c1ccc(Br)s1)N1CCN(C(=O)c2ccco2)CC1", "false (0)"),
    ("C/C=C/c1ccc(OCC(=O)OCC(=O)Nc2c(C)nn(-c3ccccc3)c2C)c(OC)c1", "false (0)"),
    ("CCc1ccc(-n2c(SCc3cc(=O)n4cc(Br)ccc4n3)nc3[nH]ncc3c2=O)cc1", "false (0)"),
    ("O=C(OC12CC3CC(CC(C3)C1)C2)c1ccc(NCc2cc(O)ccc2O)cc1", "true (1)"),
    ("CCOC(=O)CNC(=O)CSc1nnc(-c2cccc(OC)c2)n1CC", "false (0)"),
    ("O=C(N/N=C/c1ccccn1)C12CC3CC(CC(C3)C1)C2", "false (0)"),
    ("CC(C)(C)OC(=O)N(Cc1ccccc1)Cc1ccc(OCc2cccc(NC(=O)c3ccccc3)c2)cc1", "false (0)"),
    ("O=C1[C@@H](c2ccccc2)[C@@H](c2ccccc2)N1c1cccnc1", "false (0)"),
    ("CCCCCCCCCCOC(=O)Cn1c(COc2cccc(OC)c2)[n+](C)c2ccccc21", "true (1)"),
    ("Cc1ccc(NC(=O)C(C)Sc2nnc(C3CC3)n2C2CC2)cc1S(=O)(=O)N1CCOCC1 (stereo not drawn)", "false (0)"),
    ("COc1ccc2sc(-c3ccc(N(C)C)cc3)c(C#CCO)c2c1", "false (0)"),
    ("C[C@@H]1CN([C@@H](C)CO)C(=O)c2cc(NC(=O)C3CC3)ccc2O[C@H]1CN(C)C", "false (0)"),
    ("CCCOc1ccc(Cc2c(O)nc(SC)[nH]c2=O)cc1C", "false (0)"),
    ("CCCC1=Nc2cc(C(=O)NCCN3CCCC3)ccc2Sc2ccccc21", "false (0)"),
    ("COC(=O)c1ccc(NCc2cc(O)ccc2O)cc1", "false (0)"),
    ("c1ccc(C(c2ccccc2)N2CCN(Cc3nnnn3C3CCCCC3)CC2)cc1", "false (0)"),
    ("Cc1cc(C(=O)N/N=C/c2ccccn2)c2ccccc2n1", "false (0)"),
    ("CCCCOC(=O)CNc1nnc(SCC(=O)OCC)[nH]c1=O", "false (0)"),
    ("CC(=O)NCc1ccc(S(=O)(=O)NC2CCN(Cc3ccccc3)CC2)cc1", "false (0)"),
    ("CCCC1=Nc2cc(C(=O)NCc3ccco3)ccc2Sc2ccccc21", "true (1)"),
    ("COc1cccc2cc(C(N)=O)/c(=N\\NC(=O)c3ccccc3)oc12", "true (1)"),
    ("COc1cccc2c1C(=O)c1c(O)c3c(c(O)c1C2=O)CC(O)(C(C)=NNC(=O)c1ccc(Cl)c(Cl)c1)CC3OC1CC(N)C(O)C(C)O1 (stereo not drawn)", "true (1)"),
    ("CC1(C)CC(N2CCN(C(c3ccccc3)c3ccccc3)CC2)=CC(=[N+]2CCCCC2)C1", "true (1)"),
    ("COc1ccc(CCNC(=O)CSc2nc3[nH]ncc3c(=O)n2-c2cccc(C(F)(F)F)c2)cc1OC", "false (0)"),
    ("CCC(=O)N1CCc2cc(Br)c(S(=O)(=O)NCCN3CCCCC3CC)cc21 (stereo not drawn)", "false (0)"),
    ("CCCOc1ccc(Cn2c(O)cc(=O)[nH]c2=O)cc1", "false (0)"),
    ("Cc1ccc(COc2ccc(C(=O)NN)cc2)cc1", "false (0)"),
    ("COc1cccc(C(=O)Nc2c3c(nn2-c2cccc(C)c2C)CS(=O)(=O)C3)c1OC", "false (0)"),
    ("O=C(Cn1cc(C(=O)C2CC2)c2ccccc21)Nc1ccccc1Cl", "true (1)"),
    ("Oc1ccc2ccccc2c1N=Nc1nccs1", "true (1)"),
]

The measured values listed here are drawn from PubChem BioAssay AID588413.
